- PROCEDURE TEXT: Photostability test with additional light-shielding film LUMICOOL 1905 (Example 6)
- Type: physicochemical
- CONDITION PARAMETERS: additive 10 mg/mL; vial wrapped with LUMICOOL 1905
Could you please report measured Molecular weight (×10^4), irradiation time 300 h for the items listed next?

Note to self: Molecular weight (×10^4), irradiation time 300 h recorded for O=C([O-])CS.[Na+] [Na thioglycolate, sodium thioglycolate] was 157 ×10^4

Note to self: Molecular weight (×10^4), irradiation time 300 h recorded for N[C@@H](Cc1c[nH]c2ccccc12)C(=O)O was 156 ×10^4

Note to self: Molecular weight (×10^4), irradiation time 300 h recorded for O=S([O-])([O-])=S.[Na+].[Na+] [Na thiosulfate, sodium thiosulfate] was 186 ×10^4

Note to self: Molecular weight (×10^4), irradiation time 300 h recorded for CC(=O)N[C@@H](Cc1c[nH]c2ccccc12)C(=O)O was 187 ×10^4

Note to self: Molecular weight (×10^4), irradiation time 300 h recorded for O=C([O-])c1ccccc1O.[Na+] [Na salicylate, sodium salicylate] was 179 ×10^4

----------
- PROCEDURE TEXT: Photostability test in glass vials not shielded from light: gelation, molecular weight, percent conjugation of MTX (Example 4(2))
- Type: physicochemical
- CONDITION PARAMETERS: additive 1 mg/ml; 4000 Lux, 25° C., not shielded from light
MEASUREMENT TYPE: Molecular weight (×10^4), irradiation time 0 h

Note to self: Molecular weight (×10^4), irradiation time 0 h recorded for COC(=O)c1ccc(O)cc1 [Methyl paraben, methyl p-hydroxybenzoate] was 187 ×10^4

Note to self: Molecular weight (×10^4), irradiation time 0 h recorded for CC(=O)N[C@@H](Cc1c[nH]c2ccccc12)C(=O)O was 178 ×10^4

Note to self: Molecular weight (×10^4), irradiation time 0 h recorded for N[C@@H](Cc1c[nH]c2ccccc12)C(=O)O was 188 ×10^4

Note to self: Molecular weight (×10^4), irradiation time 0 h recorded for O=C([O-])CS.[Na+] [Na thioglycolate, sodium thioglycolate] was 163 ×10^4

----------
- PROCEDURE TEXT: Photostability test with additional light-shielding film LUMICOOL 1905 (Example 6);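 note: molecular weight and drug conjugation percentage of the test conjugate, both determined by the method given for the first production procedure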
- Format: physicochemical
- CONDITION PARAMETERS: additive 10 mg/mL; vial wrapped with LUMICOOL 1905
Could you please report measured Molecular weight (×10^4), irradiation time 0 h for the items listed next?

Note to self: Molecular weight (×10^4), irradiation time 0 h recorded for CC(=O)N[C@@H](Cc1c[nH]c2ccccc12)C(=O)O [N-acetyltryptophan] was 190 ×10^4

Note to self: Molecular weight (×10^4), irradiation time 0 h recorded for O=C([O-])c1ccccc1O.[Na+] [Na salicylate, sodium salicylate] was 185 ×10^4

Note to self: Molecular weight (×10^4), irradiation time 0 h recorded for O=C([O-])CS.[Na+] [Na thioglycolate, sodium thioglycolate] was 181 ×10^4

Note to self: Molecular weight (×10^4), irradiation time 0 h recorded for N[C@@H](Cc1c[nH]c2ccccc12)C(=O)O [Tryptophan, tryptophan] was 181 ×10^4

Note to self: Molecular weight (×10^4), irradiation time 0 h recorded for O=S([O-])([O-])=S.[Na+].[Na+] [Na thiosulfate, sodium thiosulfate] was 190 ×10^4

Where these numbers come from: patent US9072791B2
